- assay_comment: Stability of peptides in human serum (LC-MS)
- Assay type: in vitro ADME
- condition_label: 25% human serum (v/v), pH 7, 25% human serum in RPMI 1640, after 24 hours, 37° C., read-out: peptide remaining, percent of t0
Square brackets hold non-standard residues; d marks the D form. Peptide text beside a SMILES is read from it.
quantity: remaining at 24 h, 50 μg/mL

[[record]]
molecule = "CC[C@@H](C)[C@@H](NC(=O)[C@H](N)Cc1ccccc1)C(=O)N[C@H](CCCCN)C(=O)N[C@H](CCCNC(=N)N)C(=O)N[C@@H](C(=O)N[C@H](C)C(=O)N[C@H](CCCNC(=N)N)C(=O)N[C@H](CC(C)C)C(=O)N[C@H](CC(C)C)C(=O)N[C@H](CCCNC(=N)N)C(=O)N[C@H](CCCCN)C(=O)N[C@@H](C(=O)N[C@H](Cc1ccccc1)C(=O)O)[C@H](C)CC)[C@H](C)CC [dKn2-7] (H-[dF][dI][dK][dR][dI][dA][dR][dL][dL][dR][dK][dI][dF]-OH; N-terminus and C-terminus assumed)"
readout_value = "~43%"


###

- assay_comment: Stability of peptides in human serum (LC-MS)
- Format: in vitro ADME
- condition_label: 25% human serum (v/v), pH 7, 25% human serum in RPMI 1640, after 24 hours, 37° C., read-out: peptide remaining, percent of t0
Ends that are not written are not given here.
quantity: remaining at 24 h, 50 μg/mL

[[record]]
entry_sequence = "FIKRIARLLRKIF [Kn2-7, FIKRIARLLRKIF (SEQ ID NO. 2)]"
readout_value = "~9%"

